# assay summary: Pharmacokinetics in mice, single oral dose (plasma, whole lung)
# condition: female, CD-1, mouse, in vivo, po, 30 mg/kg, Caverage plasma, 1 h; single 30 mg/kg p.o., mice
value kind: concentration at 1 h (nM)

[[record]]
compound = "Clc1cc2cc(N3CCNCC3)ccc2nc1N1CCNCC1 [compound 5]"
value_kind = "concentration at 1 h"
unit_symbol = "nM"
measured_value = 1600


====

# Tested on: K. pneumoniae AcrB^V448E RamR^mut
# assay summary: MIC of antibiotics with and without EPI (REMA), double mutant
# Assay type: cell-based, Klebsiella pneumoniae
# condition: K. pneumoniae AcrB^V448E RamR^mut; + 100 µM PAβN
Marks after values point to notes of the source that are not given here.
Reported values of Minimum Inhibitory Concentration for individual entries
value kind: Minimum Inhibitory Concentration

[[record]]
structure_smiles = "CN(C)[C@@H]1C(O)=C(C(N)=O)C(=O)[C@@]2(O)C(O)=C3C(=O)c4c(O)cccc4[C@@](C)(O)[C@H]3C[C@@H]12"
measured_value = "4.3^# mg/L"

[[record]]
structure_smiles = "O=C(N[C@H](CO)[C@H](O)c1ccc([N+](=O)[O-])cc1)C(Cl)Cl"
measured_value = "5.3^# mg/L"

[[record]]
structure_smiles = "CO[C@@H]1[C@@H](OC(N)=O)[C@@H](O)[C@H](Oc2ccc3c(O)c(NC(=O)c4ccc(O)c(CC=C(C)C)c4)c(=O)oc3c2C)OC1(C)C"
measured_value = "8^# mg/L"

